# test_description: NCI Yeast Anticancer Drug Screen. Data for the sgs1 mgt1 strain (AID 161);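 also: 0% = growth of cultures given vehicle only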
# assay_context: S. cerevisiae sgs1 mgt1 strain, at 5.0 µM (retest, dose inferred, filed as 0.5), active compounds read high
This is part of a sample that, as a whole, favours compounds with a hit. Of some 79,000 tested, about 15% had one in any assay.
metric_name: growth inhibition (%)
Form entry: value (%) — number only.

// solved cases for growth inhibition follow
{"molecule": "CCCCCCCCCCCCCCCCCCNCCCCCCCCCCCCCCCC", "growth inhibition (%)": 5}
{"molecule": "O=[N+]([O-])c1ccc(N2N=NC(CN3CCOCC3)C2N2CCOCC2)cc1 (stereo not drawn)", "growth inhibition (%)": 1}
{"molecule": "Cc1ccc(Cc2n[nH]c(=O)n2N2C(=O)c3ccccc3C2=O)cc1", "growth inhibition (%)": 9}

Now look at this one.
Problem: Can you share its growth inhibition? I mean this molecule: c1ccc(CCNCc2ccco2)nc1
Result: -7

====

# test_description: NCI Yeast Anticancer Drug Screen. Data for the mec2-1 strain (AID 157)
# assay_context: S. cerevisiae mec2-1 strain, at 50.0 µM
The panel holds about 79,000 compounds, 15% with a hit somewhere; the sample as a whole holds those more often. Active and inactive are the calls of the source. Cut-off read from the data, not from the text of the source: active = growth inhibition above about 70%; inactive = the rest.
Can you answer with just one of these options? 1.0 (active), 0.0 (inactive)

These recorded examples may help you get a feel for the data.
{"molecule": "CC#CCCCCOC(=O)c1cc([N+](=O)[O-])cc([N+](=O)[O-])c1", "cat": 1.0}
{"molecule": "CCCCCCC(/C=C/c1c(Cl)cccc1Cl)=N\\O", "cat": 1.0}
{"molecule": "CC(C)=NOc1ccc([N+](=O)[O-])cc1[N+](=O)[O-]", "cat": 0.0}

Problem: Given O=S1(=O)CC=C1c1ccccc1 , state the outcome it received in this test.
Result: 1.0

Problem: Given O=C(OC1CC2CC1C1CC=CC21)c1ccccc1 (configuration not stated) , state the outcome it received in this test.
Result: 0.0

Problem: Given O=C1CCC(Cc2ccc(Cl)cc2Cl)C(=O)N1 (configuration not stated) , state the outcome it received in this test.
Result: 0.0

Problem: Given CN1CCS(=O)(=O)C1=O , state the outcome it received in this test.
Result: 1.0

Problem: Given COc1ccc2nc(N/N=C/c3ccccn3)cc(C)c2c1 , state the outcome it received in this test.
Result: 1.0

Problem: Given c1ccc(B2OC(c3ccccc3)C(c3ccccc3)O2)cc1 (configuration not stated) , state the outcome it received in this test.
Result: 0.0

Problem: Given Cc1ccc(C2=C(C#N)C(c3ccccc3)C(C#N)=C(N)O2)cc1 (configuration not stated) , state the outcome it received in this test.
Result: 1.0

Problem: Given Cc1cccc2c1C(=O)N(CC[P+](c1ccccc1)(c1ccccc1)c1ccccc1)C2=O , state the outcome it received in this test.
Result: 1.0

Problem: Given O=C1CN(CCN2CCOCC2)CC(=O)N2CCCCN12 , state the outcome it received in this test.
Result: 0.0

====

# test_description: NCI Yeast Anticancer Drug Screen. Data for the mlh1 rad18 strain (AID 175)
# assay_context: S. cerevisiae mlh1 rad18 strain growth inhibition; at 50.0 µM (retest, dose inferred, filed as 5.0)
Compounds without any hit were thinned out: in the full panel of roughly 79,000, 15% have a hit. Calls of active or inactive are those of the source. Cut-off read from the data, not from the text of the source: active = growth inhibition above about 70%; inactive = the rest.
Can you answer with just one of these options? true (active), false (inactive)

These recorded examples may help you get a feel for the data.
{"compound": "CC(C)(C)C(=O)CC(=O)C(F)(F)C(F)(F)C(F)(F)F.CC(C)(C)C(=O)CC(=O)C(F)(F)C(F)(F)C(F)(F)F.CC(C)(C)C(=O)CC(=O)C(F)(F)C(F)(F)C(F)(F)F.[Er]", "cat": "false"}
{"compound": "Oc1c(C(Nc2ccccn2)c2ccccc2)ccc2cccnc12 (configuration not stated)", "cat": "true"}
{"compound": "O=C(c1ccccc1)C1Cc2ccccc2C1=O (configuration not stated)", "cat": "false"}
{"compound": "O=[N+]([O-])c1c(I)ccc2ccccc12", "cat": "true"}
{"compound": "CCN(CC)CCOc1c(I)cc(I)cc1I", "cat": "true"}
{"compound": "Cc1ccccc1C[n+]1ccccc1Br", "cat": "true"}
{"compound": "O=C1C(=O)N(c2ccc(Cl)c(Cl)c2)C(=O)C(=O)C1c1nc2ccccc2o1", "cat": "true"}
{"compound": "CCOC(=O)C1=C(c2ccccc2)N(C)c2ccccc2S1", "cat": "false"}

Problem: Given CCCCCCCCCCCCCCCCC/C=N\NC(=O)CCCC(=O)N/N=C/CCCCCCCCCCCCCCCCC , state the outcome it received in this test.
Result: false

Problem: Given CCOC(=O)C(Cc1cn(S(=O)(=O)c2ccccc2)c2ccccc12)(NC(C)=O)C(=O)OCC , state the outcome it received in this test.
Result: false

Problem: Given CCCN(CCC)C(=S)N/N=C/c1cccc(C)n1 , state the outcome it received in this test.
Result: true

Problem: Given CCCCN(CCC(=O)O)c1ccc(/C=C\c2ccnc3ccccc23)cc1 , state the outcome it received in this test.
Result: true

Problem: Given O=C(Cc1ccccc1)OC(C(=O)c1ccccc1)c1ccccc1 (configuration not stated) , state the outcome it received in this test.
Result: true

====

# test_description: NCI Yeast Anticancer Drug Screen. Data for the sgs1 mgt1 strain (AID 161);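 also: 0% = growth of cultures given vehicle only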
# assay_context: S. cerevisiae sgs1 mgt1 strain, at 5.0 µM (retest, dose inferred, filed as 0.5), active compounds read high
The panel holds about 79,000 compounds, 15% with a hit somewhere; the sample as a whole holds those more often.
In this section we review reported growth inhibition values for a set of molecules.
Form entry: value (%) — number only.

// solved cases for growth inhibition follow
{"molecule": "COC(=O)C12OCC34C(CC5C(C)C6=CC(=O)OC6=CC5(C)C3C(O)C1O)OC(=O)C(OC(C)=O)C24 (stereo not drawn)", "growth inhibition / %": 63}
{"molecule": "CNc1ccc([N+](=O)[O-])cc1", "growth inhibition / %": -1}
{"molecule": "Nc1ccc(O)c2c1C(=O)c1ccccc1C2O (stereo not drawn)", "growth inhibition / %": 32}
{"molecule": "CC(Cc1ccccc1)NNC(C)Cc1ccccc1 (stereo not drawn)", "growth inhibition / %": 11}
{"molecule": "O=C1C=C(c2ccccc2)O/C1=C/C(=O)c1ccc(Cl)cc1", "growth inhibition / %": 40}
{"molecule": "CN[C@@H](Cc1cccc2ccccc12)C(=O)N[C@@H](CC(C)C)B(O)O", "growth inhibition / %": 16}
{"molecule": "Cc1ccc(NC(=O)Cc2nc3ccccc3s2)c(C)c1", "growth inhibition / %": 20}
{"molecule": "CC(C)c1ccc(C(C)C)c(O)c1O", "growth inhibition / %": 22}

Problem: Can you share its growth inhibition? I mean this molecule: C[C@]12CCC(=O)C=C1CC[C@@H]1[C@@H]2[C@@H](O)C[C@@]2(C)[C@H]1CC[C@]2(O)C(=O)COC(=O)CCC1CCCC1
Result: 51

Problem: Can you share its growth inhibition? I mean this molecule: COC(=O)c1ccccc1C=C(c1ccc([N+](=O)[O-])cc1)c1ccc([N+](=O)[O-])cc1
Result: 4

Problem: Can you share its growth inhibition? I mean this molecule: CC1CC(=O)OC(C(=O)c2ccccc2)N1c1ccc(C(F)(F)F)cc1N (stereo not drawn)
Result: 8

Problem: Can you share its growth inhibition? I mean this molecule: O=C(NCCCl)Nc1c2ccccc2nc2ccccc12
Result: 4

====

# test_description: NCI Yeast Anticancer Drug Screen. Data for the bub3 strain (AID 167)
# assay_context: S. cerevisiae bub3 mutant strain, at 5.0 µM (retest, dose inferred, filed as 0.5), active compounds read high
Compounds without any hit were thinned out: in the full panel of roughly 79,000, 15% have a hit. The source made the active and inactive calls. No stated cut-off is given here; in the data, active means growth inhibition above about 70%; inactive means the rest.
metric_name: growth inhibition

{"compound": "O=S(=O)(O)C(O)c1ccc2ccc3cccc4ccc1c2c34 (stereo unspecified)", "growth inhibition": "-3% (inactive)"}
{"compound": "Oc1ccc(N=Nc2ccc(Cl)cc2)cc1O", "growth inhibition": "-35% (inactive)"}
{"compound": "COC1CC(C)(NC(C)=O)C2OC(c3ccccc3)OCC2O1 (stereo unspecified)", "growth inhibition": "-21% (inactive)"}
{"compound": "COC1=C(NC(C)=O)C(=O)c2nc(-c3nc(C(=O)O)c(C)c(-c4ccc(OC)c(OC)c4O)c3N)ccc2C1=O", "growth inhibition": "15% (inactive)"}
{"compound": "CN(C)N=Nc1c(-c2ccccc2)n[nH]c1-c1ccccc1", "growth inhibition": "99% (active)"}

Problem: Can you share its growth inhibition? I mean this compound: CCCCCN(CCCCC)CCNc1ccc(C)c2sc3ccccc3c(=O)c12
Result: 7% (inactive)

Problem: Can you share its growth inhibition? I mean this compound: CCCCCc1[nH]nc(C(=O)OC)c1N=NN1CCOCC1
Result: 81% (active)

Problem: Can you share its growth inhibition? I mean this compound: S=c1sc2nc(Cl)nc(Cl)c2s1
Result: 100% (active)

Problem: Can you share its growth inhibition? I mean this compound: CC(C)CCCC(C)C1CCC2C3CC=C4OC(=O)CCC4(C)C3CCC12C (stereo unspecified)
Result: -1% (inactive)

Problem: Can you share its growth inhibition? I mean this compound: CCC[CH2][Sn]([S][Sn]([CH2]CCC)([c]1ccccc1)[c]1ccccc1)([c]1ccccc1)[c]1ccccc1
Result: 98% (active)

Problem: Can you share its growth inhibition? I mean this compound: CCCCCCCCNc1ncnc2c1cnn2C
Result: 1% (inactive)
